# Test system: P388 leukemia ip, CD2F1 mice, survival T/C
# assay_text: NCI In Vivo Anticancer Drug Screen. Data for tumor model P388 Leukemia (intraperitoneal) in CD2F1 (CDF1) mice
# conditions: endpoint: median survival time; dose: 7.5 mg/kg/injection; schedule: Q01DX005 (ip); vehicle: saline with Tween-80; higher = longer survival
Toxic doses and inconclusive results are not listed.
quantity_measured: T/C

Lookup: // output T/C; input `CC1=NCC[N-]CC[N-]CCN=C(C)C2CCCC1[N-]2.[Mn+3]` ; system P388 leukemia ip, CD2F1 mice, survival T/C
Found: 100 % of control

Lookup: Provide the reported T/C (system: P388 leukemia ip, CD2F1 mice, survival T/C) for CCCCCCCCCCCCCCCCC1=C(C(=O)OC)NC(N)=NC1O (stereo not given)
Found: 103 % of control

Lookup: Under P388 leukemia ip, CD2F1 mice, survival T/C, report T/C for `O=C(N/N=C/c1ccccc1O)c1cc2ccccc2cc1O`
Found: 92 % of control

Lookup: # lookup: P388 leukemia ip, CD2F1 mice, survival T/C T/C, key = `O=C(Nc1ccc(Cl)cc1)Nc1nnc(-c2cccc(Cl)c2)o1`
Found: 95 % of control

Lookup: Give the observed T/C of `C[C@]12C=CC(=O)NC[C@@H]1CC[C@@H]1[C@@H]2CC[C@]2(C)[C@@H](OC(=O)COc3ccc(N(CCCl)CCCl)cc3)CC[C@@H]12` for P388 leukemia ip, CD2F1 mice, survival T/C.
Found: 120 % of control
